Tested on: MS2 coat protein
ASSAY_COMMENT: apparent KD of MS2 coat protein; higher = weaker reporter binding
CONDITION_DETAILS: Eterna round: R107; input ligand: none
Known apparent KD of MS2 coat protein of a selection of sequences
PARAMETER: apparent KD of MS2 coat protein

RECORD_SEQUENCE	PARAMETER	REPORTED_RESULT
UAUCCACAUGAGGAUCACCCAUGUUAGGAAGGAGCGGUGGAUGCACCAGGUAGGUCGCCUAGCUGAGGACUGUCGGUGGAUUCGU [Exclusion - Arginine A (Freestyle 21)]	apparent KD of MS2 coat protein	86.5 nM
UUCAGCUAGUCGGCCGCCACUAUCUGAGGAUCACCCAGGUAAUCCUAACACUGCUUCGGCAGUGGUAGGACCGGGACUAGCUGAG	apparent KD of MS2 coat protein	14.5 nM
ACCGCAUCCGUAUAGGAUGCGGCCCAUGAAGGAGCGUGGGAAACCACAGGUAGGUCGCAUGACAUGAGGAUCACCCAUGUUUAUU [Matrix]	apparent KD of MS2 coat protein	44.2 nM

---

Tested on: MS2 coat protein
ASSAY_COMMENT: apparent KD of MS2 coat protein; designed switch direction (-1 OFF switch, 1 ON switch): 1; higher = weaker reporter binding
CONDITION_DETAILS: input ligand: none

RECORD_SEQUENCE	READOUT_UNITS	apparent KD of MS2 coat protein
ACAUGAGACAAAGGAUAUGGUGUACCUACAUGUGACAUGAGGAUCACCCAUGUGGUAAGUAUGACUCAGAAGGUUGAGAUAUGU [Equivalance 74 - Jieux - Same State NG 2] (Eterna round: R96, puzzle: Same State NG 2)	nM	299
UGGCUCAGAGCAGGAUAUAUGUGGUCACAUGAGGAUCACCCAUGUCUCGAGCUUCGGCUCGAGGCAUAGAAGGGCUCUGAGCCA [SSNG2/5-B2] (Eterna round: R96, puzzle: Same State NG 2)	nM	58.1
CUGGCGCGCACAGGAUAUGCGGCCGGCAAGGUGGCAGAAGGGUGAUAAACAGACGACAUGAGGAUCACCCAUGUCGCAAAGAAU [Arsobe] (Eterna round: R96, puzzle: Same State NG 1)	nM	85.4
CUGAAAUGUCAAGGAUAUCACGUCGAUUAGACGUGAGAAGGUGAUCUACACAUGAGGAUCACCCAUGUGUUACAUGGGAGUCAG [Brourd's SSNG1/1-A2 mod 17] (Eterna round: R96, puzzle: Same State NG 1)	nM	601
CCGGUAUAUGGAGGAUAUGGAGCCUUAUUGGCUCCAGAAGGCUAAUAACAUGAGGAUCACCCAUGUCCGGCGGUCAAUAGACCG [Eli NG1ss - 59] (Eterna round: R96, puzzle: Same State NG 1)	nM	336

---

Test system: MS2 coat protein
ASSAY_COMMENT: apparent KD of MS2 coat protein; designed switch direction (-1 OFF switch, 1 ON switch): -1; higher = weaker reporter binding
CONDITION_DETAILS: input ligand: FMN 200 uM
Tick condition met if apparent KD of MS2 coat protein is 30 nM or greater. Tick condition not met if apparent KD of MS2 coat protein is less than 30 nM.

RECORD_SEQUENCE	GROUP_LABEL
ACAAGCUCUGUGGGUGGUGACAUGAGGAUCACCCAUGUUUUGCUCGUCUUGUCGGCCGGCCGGCGCCCGGCCGGCCG [-39.6, -68.5, A 12%] (Eterna round: R97, puzzle: Sensor, turn-off variant 1)	condition met
UUGUACAUAGGAUAUAGUUGUUUGUACAUGAGGAUCACCCAUGUUAUGUAUGUUUUGCUUCUAGAAGGAUGUUGUU [JR_E5_Sub004] (Eterna round: R96, puzzle: Exclusion 5)	condition not met
GUUCGUGGGCAAGGAUAUCCUACGCUGUUCUGGUUCGUGUCUGUCACAUGAGGAUCACCCAUGUGGGAGAAGGUGCAUUUGGGU [Design 57] (Eterna round: R96, puzzle: Exclusion NG 2)	condition not met
AUUAAAACGGCAGGAUAUCAGCGACAUGAGGAUCACCCAUGUUAGGGCUGACCCUGGAGUCUGGCUGAGAAGGGCCGACUCUCA [Riququ] (Eterna round: R96, puzzle: Exclusion NG 2)	condition met
ACAAAGCUUUUUGCUCGUCACAUGAGGAUCACCCAUGUGAUAUAAUGAAAAUUAUAUGACAUCCCACUAGGACAUGU [I did it?] (Eterna round: R97, puzzle: Sensor, turn-off variant 1)	condition not met

---

System: MS2 coat protein
ASSAY_COMMENT: apparent KD of MS2 coat protein; designed switch direction (-1 OFF switch, 1 ON switch): 1; higher = weaker reporter binding
CONDITION_DETAILS: Eterna round: R95; input ligand: none
Tick MET if apparent KD of MS2 coat protein is 100 nM or greater. Tick NOT MET if apparent KD of MS2 coat protein is less than 100 nM.

RECORD_SEQUENCE	GROUP_LABEL
GAAGAACAUGAGGAUCACCCAUGUAGGCGGAAGCUAGGAUAUGCGGGAAAGAAGAGAGAAGCAGAAGGAGUAGGUA [JR_SS1_Sub030] (puzzle: Same State 1)	NOT MET
GUUAAACAUGAGGAUCACCCAUGUAAUAUAAUGGGAGGAUAUCUGAAUUAAUUAAAUUAAGGAGAAGGCCUAUAUG [Mat - Same State 1 - Mod of Eli - D53] (puzzle: Same State 1)	MET
UAACAACAUAUAGAACAAGCGUGCUCGUCACAUGAGGAUCACCCAUGUCUAAGCGCUGUACCUACAUCCUCAGCGCC [Raononbeen] (puzzle: Sensor for hsa-mir-208a)	NOT MET
UUAUAACAUGAGGAUCACCCAUGUCAACAAAGUCGAGGAUAUGGGCAAUUAUUAUAAGAACCAGAAGGCGAAUAUU [Mat - Same State 1 - Mod of UCT - D32] (puzzle: Same State 1)	MET
GGCAGGUGCAGGCUUGCUUGCACCUGGAAACAUGAGGAUCACCCAUGUUUGGGACAAGCUUUGCUCUUCGUUUUGUC [JL ViennaUCT Isusreraar mod 4] (puzzle: Sensor for hsa-mir-208a)	NOT MET
AGUCCAGCCUGAGCUGGACAAAAGCAUGUACAUGAGGAUCACCCAUGUUCAUGUACAAGCUUUUUGCUCGUCUUAUU [salish99_208a_r3_047] (puzzle: Sensor for hsa-mir-208a)	MET
AUAUAACAUGAGGAUCACCCAUGUCUCUAAAGUCGAGGAUAUGGGCAGGUUAUAUCCGAACCAGAAGGCGAAUUAU [SS1 Teenbexe 5] (puzzle: Same State 1)	MET
UCUUGGUUUUUGCUCGUUUUUUGUGUUGAACAUGAGGAUCACCCAUGUAUUGUACGGUCCGAUUUAAUAAUGGUCCA [JMF 38] (puzzle: Sensor for hsa-mir-208a)	NOT MET
AGUCCAGCCUGAGCUGGACAAAAGCAUGUACAUGAGGAUCACCCAUGUUCAUGUACAAGCUUUUUGCUCGUCUUAAA [salish99_208a_r3_026] (puzzle: Sensor for hsa-mir-208a)	MET
AAGAAUCUAUCUCAGGAUAUCAUGUCAAAGACAUGAGGAUCACCCAUGUACCAGGAAACUGGUUAUGAGAAGGGAGAUAGAUUCA [Mat - Same State 2 - Mod - D31] (puzzle: Same State 2)	NOT MET

---

System: K4 kissing-loop RNA reporter;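 further: bound reporter read as fluorescence of individual clusters on recovered sequencing chips by microscopy, with normalized cluster intensities fitted with a binding model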
ASSAY_COMMENT: apparent KD of K4 kissing-loop reporter; higher = weaker reporter binding
CONDITION_DETAILS: Eterna round: R107; input ligand: tryptophan 2.4 mM
PARAMETER: apparent KD of K4 kissing-loop reporter (nM)

RECORD_SEQUENCE	READOUT_UNITS	REPORTED_RESULT
GGCCGGAAGGCGGCCGCCACUCAGUGAUGUUGUGUGAAAGAAAAGAAAAGAAGAAAGAAAAGAAAGAGGACCGGGCCAAACGGCC	nM	580
GGCACUUUUGCUUGGAACCGUCAAGCUCUAUAGGAUAUGCCGAAAGGCAGAAGGAUGGACCUACAGAGUGAUGUUCUGCGUGCCU	nM	218
UUUUAUUAAUUCUUCUAGUGAUGUUAGAUACGAGGACCGGUACGGCCGCCACUCGCUUAUUGGUUUAUAUAUUUUAUAUUCUUUA [JR_SSTryptoA_Sub015]	nM	264
UUGUGCAGCAAACGAGUGAUGUUCGACGAUACCAGCCUCGAUAGAGGCCCUUGGCAGCGUAAUAAUCACAGCCAAGGGCUGCACU [#SwitchBubble 4]	nM	560
ACUGCCAUUGCGGCCGCCACUAUCUCACUUUGCGAAUCUGCACCGACUGAGUGAUGUUCGGUAAAUAGGACCGGGCAAUGGGCCG [theeternabot_sameState_KL_Trp_B_26]	nM	657
UUCAGGUGUUCGGCCGCCACUCCAGUGAUGUUGGAGUGGCUUCACAAGGGCCAGGACAAUGUAGGGAGGACCGGGAAUAUCGCAG [Atvebeance]	nM	125
